- Protocol: Half life in human liver microsomes at 3 uM
- Format: ADME, Microsome
In this section we review reported half-life at 3 µM values for a set of compounds.

| Smiles string | half-life at 3 µM / h |
| --- | --- |
| NC(=O)c1cccc([C@H]2C[C@H]3CC[C@@H](C2)N3CCN(CC2CCC2)C(=O)CO)c1 | 1.5 |
| CC(=O)N(CCN1[C@@H]2CC[C@H]1C[C@@H](c1cccc(C(N)=O)c1)C2)CC1CCCCC1 | 1.05 |
| CN(C)S(=O)(=O)N(CCN1[C@@H]2CC[C@H]1C[C@@H](c1cccc(C(N)=O)c1)C2)CC1CCCCC1 | 0.15 |
| CCC(CC)CN(CCCCCN1[C@@H]2CC[C@H]1C[C@@H](c1cccc(C(N)=O)c1)C2)C(=O)CO | 0.2 |
| NC(=O)c1cccc([C@H]2C[C@H]3CC[C@@H](C2)N3CCN(CC2CCOCC2)C(=O)CO)c1 | 1.5 |
| NC(=O)c1cccc([C@H]2C[C@H]3CC[C@@H](C2)N3CCN(CC2CCCCC2)C(=O)c2ccco2)c1 | 0.283 |
| NC(=O)c1cccc([C@H]2C[C@H]3CC[C@@H](C2)N3CCN(CC2CCCC2)C(=O)CO)c1 | 1.5 |
| CCC(CC)CN(CCCN1[C@@H]2CC[C@H]1C[C@@H](c1cccc(C(N)=O)c1)C2)C(=O)CO | 1.5 |

====

- Test system: MDR1
- Protocol: Efflux ratio of permeability in dog MDCK-MDR1 cells
- Type: ADME, cell-based, Canis lupus familiaris

| Molecule | efflux ratio |
| --- | --- |
| NC(=O)c1cccc([C@H]2C[C@H]3CC[C@@H](C2)N3CCN(CC2CCCCC2)C(=O)[C@@H](O)CO)c1.O=S(=O)(O)O [AXELOPRAN SULFATE] | 24 |

====

- Protocol: Oral bioavailability in Sprague-Dawley rat at 10 mg/kg administered via gavage
- Type: ADME, organism-based
- Recorded conditions: in vivo

| Smiles string | Unit tag | bioavailability |
| --- | --- | --- |
| C[C@H]1CN(C[C@H](Cc2ccccc2)C(=O)NCC(=O)O)CC[C@H]1c1cccc(O)c1 | % | 0.1 |

====

- Subject of test: Delta-type opioid receptor (Homo sapiens)
- Sequence (P41143 whole entry): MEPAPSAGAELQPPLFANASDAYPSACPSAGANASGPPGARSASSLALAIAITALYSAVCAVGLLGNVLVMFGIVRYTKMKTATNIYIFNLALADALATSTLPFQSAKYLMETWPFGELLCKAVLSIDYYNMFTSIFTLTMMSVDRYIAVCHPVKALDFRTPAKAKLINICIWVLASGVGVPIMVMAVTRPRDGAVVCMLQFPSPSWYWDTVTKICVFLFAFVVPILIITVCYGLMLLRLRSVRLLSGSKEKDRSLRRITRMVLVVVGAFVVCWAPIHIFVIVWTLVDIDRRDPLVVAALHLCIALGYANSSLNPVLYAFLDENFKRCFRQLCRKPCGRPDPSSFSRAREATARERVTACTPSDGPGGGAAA
- Protocol: Displacement of [3H]-DPN from recombinant human delta opioid receptor expressed in CHO-K1 cell membranes by radioligand binding assay
In this section we review reported Ki values for a set of compounds.

| Compound | Ki |
| --- | --- |
| CS(=O)(=O)N(CCN1[C@@H]2CC[C@H]1C[C@@H](c1cccc(C(N)=O)c1)C2)CC1CCCCC1 | 7.94 nM |
| CS(=O)(=O)CC(=O)N(CCN1[C@@H]2CC[C@H]1C[C@@H](c1cccc(C(N)=O)c1)C2)CC1CCCCC1 | 1.26 nM |
| NC(=O)c1cccc([C@H]2C[C@H]3CC[C@@H](C2)N3CCN(CC2CCCCC2)C(=O)[C@@H](O)CO)c1.O=S(=O)(O)O [AXELOPRAN SULFATE] | 1.58 nM |
| CC(C)NC(=O)N(CCN1[C@@H]2CC[C@H]1C[C@@H](c1cccc(C(N)=O)c1)C2)CC1CCCCC1 | 1.26 nM |
| NC(=O)c1cccc([C@H]2C[C@H]3CC[C@@H](C2)N3CCN(CC2CCCCC2)C(=O)c2ccco2)c1 | 1.26 nM |
| NC(=O)c1cccc([C@H]2C[C@H]3CC[C@@H](C2)N3CCN(CC2CCOCC2)C(=O)CO)c1 | 200 nM |
| COC(=O)N(CCN1[C@@H]2CC[C@H]1C[C@@H](c1cccc(C(N)=O)c1)C2)CC1CCCCC1 | 2.51 nM |
